Origin of the recorded values: patent US9884851B2

# target: SR-BI (Mus musculus, UniProt Q61009)
# Sequence (Q61009 whole entry): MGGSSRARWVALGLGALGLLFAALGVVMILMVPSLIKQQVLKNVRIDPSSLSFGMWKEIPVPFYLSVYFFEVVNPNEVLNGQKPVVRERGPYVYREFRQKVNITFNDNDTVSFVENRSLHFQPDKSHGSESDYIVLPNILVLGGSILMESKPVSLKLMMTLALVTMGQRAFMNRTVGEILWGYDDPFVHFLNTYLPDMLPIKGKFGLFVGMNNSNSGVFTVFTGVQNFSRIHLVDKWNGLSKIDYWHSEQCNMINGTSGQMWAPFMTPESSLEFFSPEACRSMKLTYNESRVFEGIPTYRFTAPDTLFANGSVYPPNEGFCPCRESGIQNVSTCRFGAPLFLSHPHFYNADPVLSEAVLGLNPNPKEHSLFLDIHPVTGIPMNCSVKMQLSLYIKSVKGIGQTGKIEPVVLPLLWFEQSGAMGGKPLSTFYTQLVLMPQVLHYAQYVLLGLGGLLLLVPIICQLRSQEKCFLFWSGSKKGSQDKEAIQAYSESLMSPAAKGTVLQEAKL
# experimentNotes: DiI-HDL uptake assay with extended washout
# Format: cell-based, murine
# Design: expressed in transfected cells; host or cells: ldlA[mSR-BI], Chinese hamster ovary (CHO) cells lacking LDL receptor (Krieger Laboratory)
# runParameters: 4-hour washout period; read-out: DiI-HDL uptake IC50 after 4-hour washout period
pIC50: −log10 of the molar value.

{"columns": ["molecule", "pIC50"],
 "data": [
  ["CCCCCCC1CCCC1=NNC(N)=S (stereo not shown) [BLT-1, reference compound]", 9.22]
]}

====

# Test system: ldlA[mSR-BI] cells
# experimentNotes: Cell cytotoxicity assay (CellTiter-Glo)
# runParameters: read-out: 3 h CellTiter-Glo IC50; 3 hours treatment
assayReadout: IC50

{"columns": ["compound", "assayReadout", "dataValue"],
 "data": [
  ["COc1ccc(-c2nnn(CC(=O)N(C3CCCCC3)C(C)C(=O)NC3CCCC3)n2)cc1OC (stereo not shown) [MLS000888573, reference compound]", "IC50", "> 35 µM"]
]}

====

# System: ldlA[mSR-BI] cells
# experimentNotes: Cell cytotoxicity assay (CellTiter-Glo)
# runParameters: read-out: 24 h CellTiter-Glo cytotoxicity IC50; 24 hours treatment

{"columns": ["molecule", "target", "IC50"],
 "data": [
  ["COc1ccc(-c2nnn(CC(=O)N(C3CCCCC3)C(C)C(=O)NC3CCCC3)n2)cc1OC (stereo not shown) [MLS000888573, reference compound]", "ldlA[mSR-BI] cells", "> 35 µM"]
]}

====

# Tested on: ldlA7 cells
# experimentNotes: DiI-HDL uptake assay in the absence of SR-BI (ldlA7 counterscreen)
# Format: cell-based, Chinese hamster
# runParameters: Cricetulus griseus; parental cells not overexpressing SR-BI
# Method: DiI-HDL Uptake Assay in the Absence of SR-BI (SA 7: AID No. 588825) In the primary assay, the cell line used to measure DiI-HDL uptake lacks the LDL receptor and overexpresses SR-BI. […] As in the primary assay, 10 μg protein/ml of DiI-HDL was used to measure DiI uptake into the cells after 3 hours of incubation with different concentrations of compound.
pIC50: −log10 of the molar value.

{"columns": ["inputSmiles", "pIC50"],
 "data": [
  ["C[C@H](C(=O)NC1CCCC1)N(C(=O)Cn1nnc(-c2ccc3c(c2)OCO3)n1)C1CCCCC1", "< 4.46"]
]}
